- EXPERIMENTAL SYSTEM: Human PDGFRβ, cytoplasmic domain (GST-PDGFRβ) (Homo sapiens, UniProt P09619)
- Sequence (P09619 with tags, fused parts or gaps): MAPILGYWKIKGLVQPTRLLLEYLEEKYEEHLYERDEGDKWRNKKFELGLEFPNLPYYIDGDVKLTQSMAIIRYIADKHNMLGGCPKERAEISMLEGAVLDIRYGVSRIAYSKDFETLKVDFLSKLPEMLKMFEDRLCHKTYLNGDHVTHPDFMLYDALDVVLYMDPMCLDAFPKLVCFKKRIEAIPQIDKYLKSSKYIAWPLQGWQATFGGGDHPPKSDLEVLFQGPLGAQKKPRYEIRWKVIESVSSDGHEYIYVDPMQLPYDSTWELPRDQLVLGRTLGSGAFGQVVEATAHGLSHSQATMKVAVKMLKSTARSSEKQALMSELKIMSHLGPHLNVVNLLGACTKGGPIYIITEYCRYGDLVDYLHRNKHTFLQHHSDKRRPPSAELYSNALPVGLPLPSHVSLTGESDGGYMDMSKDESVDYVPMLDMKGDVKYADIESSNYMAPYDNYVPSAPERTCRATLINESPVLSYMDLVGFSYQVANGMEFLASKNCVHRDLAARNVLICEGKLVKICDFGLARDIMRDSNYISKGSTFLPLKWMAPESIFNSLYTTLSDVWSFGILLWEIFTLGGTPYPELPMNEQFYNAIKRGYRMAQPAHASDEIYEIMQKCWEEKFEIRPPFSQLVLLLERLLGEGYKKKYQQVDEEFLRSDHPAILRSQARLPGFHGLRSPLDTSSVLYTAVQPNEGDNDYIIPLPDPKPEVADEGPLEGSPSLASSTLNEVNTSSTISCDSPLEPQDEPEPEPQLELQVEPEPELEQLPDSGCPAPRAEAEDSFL
pIC50: −log10 of the molar value.
Reported pIC50 values follow for various molecules

Completed entries (count: 2):
Form field: pIC50 recorded for CCn1cc2ncc(N[C@@H](C)c3cc(NC(=O)c4cnc(N5CCN(C)CC5)c(C(F)(F)F)c4)ccc3F)nc2n1 with Human PDGFRβ, cytoplasmic domain (GST-PDGFRβ) (Homo sapiens, UniProt P09619) (enter value)
> 6.52

Human PDGFRβ, cytoplasmic domain (GST-PDGFRβ) (Homo sapiens, UniProt P09619) / pIC50 / C[C@H](Nc1cnc2cnn(C)c2n1)c1cc(NC(=O)c2cnn(C3CCC3)c2)ccc1F : value?
> 6.52

Others:
Kindly state the measured pIC50 obtained for CCn1cc2ncc(N[C@@H](C)c3cccc(NC(=O)c4ccc(CN5CCCC(F)(F)C5)c(C)c4)c3)nc2n1 with Human PDGFRβ, cytoplasmic domain (GST-PDGFRβ) (Homo sapiens, UniProt P09619).
> 6.52

Lab note: need pIC50 with Human PDGFRβ, cytoplasmic domain (GST-PDGFRβ) (Homo sapiens, UniProt P09619) for entry CCn1cc2ncc(N[C@@H](C)c3cccc(NC(=O)c4cnc(COC)s4)c3)nc2n1 , please look it up.
6.00 to 6.52

Give Human PDGFRβ, cytoplasmic domain (GST-PDGFRβ) (Homo sapiens, UniProt P09619) pIC50 for COc1ccc(C(=O)Nc2cccc([C@H](C)Nc3cnc4[nH]cc(-c5cnn(C)c5)c4n3)c2)cn1
> 6.52

Form entry - test system: Human PDGFRβ, cytoplasmic domain (GST-PDGFRβ) (Homo sapiens, UniProt P09619); read-out: pIC50; molecule: CCn1cc2ncc(N[C@@H](C)c3cc(NC(=O)c4ccc(OC(F)F)nc4)ccc3F)nc2n1
> 6.52

What value of pIC50 on Human PDGFRβ, cytoplasmic domain (GST-PDGFRβ) (Homo sapiens, UniProt P09619) does C[C@H](Nc1cnc2cnn(C)c2n1)c1cccc(NC(=O)c2cncc(C(C)(C)F)c2)c1 have?
> 6.52

What value of pIC50 on Human PDGFRβ, cytoplasmic domain (GST-PDGFRβ) (Homo sapiens, UniProt P09619) does C[C@H](Nc1cnc2cn[nH]c2n1)c1cccc(NC(=O)c2cncc(C(C)(C)F)c2)c1 have?
> 6.52

Lab request: please report pIC50 under test system Human PDGFRβ, cytoplasmic domain (GST-PDGFRβ) (Homo sapiens, UniProt P09619) for Cc1cc(C(=O)Nc2ccc(F)c([C@H](C)Nc3cnc4cnn(C)c4n3)c2)cnc1NC(C)C
> 6.52

Notebook: pull reported pIC50 for Human PDGFRβ, cytoplasmic domain (GST-PDGFRβ) (Homo sapiens, UniProt P09619), entry Cc1n[nH]c2ncc(N[C@@H](C)c3cccc(NC(=O)c4ccc(C(F)(F)F)nc4)c3)nc12
> 6.52

Find pIC50 (Human PDGFRβ, cytoplasmic domain (GST-PDGFRβ) (Homo sapiens, UniProt P09619)) for the entry CCn1cc2ncc(N[C@@H](C)c3cccc(NC(=O)c4ccc(CN5CC[C@@H](O)C5)c(Cl)c4)c3)nc2n1
> 6.52

====

Endpoint: IC50. System: Human PDGFRβ, cytoplasmic domain (GST-PDGFRβ) (Homo sapiens, UniProt P09619). Items follow.

Worked examples follow.
Please provide the recorded IC50 for Cc1cncc(C(=O)Nc2cccc([C@H](C)Nc3cnc4cc(F)ccc4n3)c2)c1 , tested on Human PDGFRβ, cytoplasmic domain (GST-PDGFRβ) (Homo sapiens, UniProt P09619).
< 0.3 µM

Entry CCn1cc2ncc(N[C@@H](C)c3cc(NC(=O)Cc4cnc(C5CC5)c(F)c4)ccc3F)nc2n1 , system Human PDGFRβ, cytoplasmic domain (GST-PDGFRβ) (Homo sapiens, UniProt P09619): what IC50 was measured?
≥ 1 µM

Form field: IC50 recorded for CCn1cc2ncc(N[C@@H](C)c3cccc(NC(=O)Cc4ccccc4)c3)nc2n1 with Human PDGFRβ, cytoplasmic domain (GST-PDGFRβ) (Homo sapiens, UniProt P09619) (enter value)
0.3 to 1 µM

Param readout = IC50; param system = Human PDGFRβ, cytoplasmic domain (GST-PDGFRβ) (Homo sapiens, UniProt P09619); param query = C[C@H](Nc1cnc2cnn(C)c2n1)c1cccc(NC(=O)c2ccc(C(F)(F)F)s2)c1 ; response: value
< 0.3 µM

Which IC50 is reported with Human PDGFRβ, cytoplasmic domain (GST-PDGFRβ) (Homo sapiens, UniProt P09619) for this entry: Cc1cncc(C(=O)Nc2cccc([C@H](C)Nc3cncc4c3cnn4C)c2)c1 ?
≥ 1 µM

What reported IC50 corresponds to C[C@H](Nc1cnc2cn(C3CC3)nc2n1)c1cc(NC(=O)c2cnc(C(F)(F)F)s2)ccc1F on Human PDGFRβ, cytoplasmic domain (GST-PDGFRβ) (Homo sapiens, UniProt P09619)?
< 0.3 µM

Continuing:
# get_value(readout= IC50, system= Human PDGFRβ, cytoplasmic domain (GST-PDGFRβ) (Homo sapiens, UniProt P09619)) for CCn1cc2ncc(N[C@@H](C)c3cc(NC(=O)Cc4ccc(Cl)c(C)n4)ccc3F)nc2n1
< 0.3 µM

IC50 of Cc1cncc(C(=O)Nc2cccc([C@H](C)Nc3cncc4c3cnn4-c3cnn(C)c3)c2)c1 on Human PDGFRβ, cytoplasmic domain (GST-PDGFRβ) (Homo sapiens, UniProt P09619)?
< 0.3 µM

Human PDGFRβ, cytoplasmic domain (GST-PDGFRβ) (Homo sapiens, UniProt P09619) / IC50 / CCn1cc2ncc(N[C@@H](C)c3cccc(NC(=O)c4cnc(C(F)F)s4)c3)nc2n1 : value?
< 0.3 µM

Checklist item: IC50 tested on Human PDGFRβ, cytoplasmic domain (GST-PDGFRβ) (Homo sapiens, UniProt P09619), entry C[C@H](Nc1cnc2[nH]ccc2n1)c1cc(NC(=O)c2ccc(C3CC3)nc2)ccc1F , value?
< 0.3 µM

Item: CCn1cc2ncc(N[C@@H](C)c3cc(NC(=O)Cc4cncc(F)c4)ccc3F)nc2n1 Test system: Human PDGFRβ, cytoplasmic domain (GST-PDGFRβ) (Homo sapiens, UniProt P09619) Read-out: IC50 Value: ?
≥ 1 µM

Fill in the recorded IC50 for this compound, with Human PDGFRβ, cytoplasmic domain (GST-PDGFRβ) (Homo sapiens, UniProt P09619) as test system: CCc1cc(C(=O)Nc2cccc([C@H](C)Nc3cnc4cn(CC)nc4n3)c2)ccc1CN1CC2(COC2)C1
< 0.3 µM

Please tell me: IC50 of Cc1cc(C(=O)Nc2cccc([C@H](C)Nc3cnc4cnn(C)c4n3)c2)cnc1OCC(C)C , system Human PDGFRβ, cytoplasmic domain (GST-PDGFRβ) (Homo sapiens, UniProt P09619)?
< 0.3 µM

Form field - read-out: IC50; system: Human PDGFRβ, cytoplasmic domain (GST-PDGFRβ) (Homo sapiens, UniProt P09619); submitted item: CCn1cc2ncc(N[C@@H](C)c3cccc(NC(=O)Cc4cccc(C(F)(F)F)c4)c3)nc2n1
0.3 to 1 µM

Form: Entry = CSc1ccc(C(=O)Nc2cccc([C@H](C)Nc3cnc4cnn(C)c4n3)c2)cc1 | System = Human PDGFRβ, cytoplasmic domain (GST-PDGFRβ) (Homo sapiens, UniProt P09619) | IC50 = ____
< 0.3 µM

Checklist item: IC50 tested on Human PDGFRβ, cytoplasmic domain (GST-PDGFRβ) (Homo sapiens, UniProt P09619), entry Cc1cc(C(=O)Nc2cccc([C@H](C)Nc3cnc4[nH]nc(C)c4n3)c2)cnc1C(F)(F)F , value?
< 0.3 µM

Missing value: IC50, Human PDGFRβ, cytoplasmic domain (GST-PDGFRβ) (Homo sapiens, UniProt P09619), entry CCn1cc2ncc(N[C@@H](C)c3cc(NC(=O)Cc4cc(F)ccc4F)ccc3C)nc2n1 . Fill in?
< 0.3 µM

Fill in the recorded IC50 for this compound, with Human PDGFRβ, cytoplasmic domain (GST-PDGFRβ) (Homo sapiens, UniProt P09619) as test system: CCn1cc2ncc(N[C@@H](C)c3cc(NC(=O)c4cnc(C)s4)ccc3F)nc2n1
< 0.3 µM

# query: IC50 | item COc1ccc(NC(=O)c2cncc(C)c2)cc1CNc1cnc2ccccc2n1 | system: Human PDGFRβ, cytoplasmic domain (GST-PDGFRβ) (Homo sapiens, UniProt P09619)
≥ 1 µM

Item CCn1cc2ncc(N[C@@H](C)c3cccc(NC(=O)c4cnn(C5CC5)c4)c3)nc2n1 with Human PDGFRβ, cytoplasmic domain (GST-PDGFRβ) (Homo sapiens, UniProt P09619) - IC50?
0.3 to 1 µM

State its IC50 on Human PDGFRβ, cytoplasmic domain (GST-PDGFRβ) (Homo sapiens, UniProt P09619): CCn1cc2ncc(N[C@@H](C)c3cc(NC(=O)Cc4ccc(Cl)c(C)n4)ccc3C)nc2n1
< 0.3 µM
